From: paper PMC10683472

Biological target: TLR10 (Homo sapiens)
Sequence (Q9BXR5 20-576): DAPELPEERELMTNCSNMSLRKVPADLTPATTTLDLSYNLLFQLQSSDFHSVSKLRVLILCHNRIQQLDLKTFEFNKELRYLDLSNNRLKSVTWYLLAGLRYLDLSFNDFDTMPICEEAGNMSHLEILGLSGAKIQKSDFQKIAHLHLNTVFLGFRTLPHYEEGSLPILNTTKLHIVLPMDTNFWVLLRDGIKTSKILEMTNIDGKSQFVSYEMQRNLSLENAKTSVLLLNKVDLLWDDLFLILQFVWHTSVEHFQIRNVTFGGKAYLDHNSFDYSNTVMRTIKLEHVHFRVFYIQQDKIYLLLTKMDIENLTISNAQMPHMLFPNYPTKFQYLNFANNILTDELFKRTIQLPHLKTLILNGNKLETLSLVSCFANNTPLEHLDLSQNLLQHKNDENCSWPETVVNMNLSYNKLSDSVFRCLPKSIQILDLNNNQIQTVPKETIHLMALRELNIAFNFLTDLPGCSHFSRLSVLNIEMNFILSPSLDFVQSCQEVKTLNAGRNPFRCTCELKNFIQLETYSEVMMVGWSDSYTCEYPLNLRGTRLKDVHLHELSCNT
Test: mRNA display affinity selection against TLR10, NGS abundance
Format: binding
Set-up: Chimera protein (extracellular domain, amino acid 20-576;); Fc (chimera); purchased R&D system #6619-TR-050
Settings: TLR10 selection pulldown (-); Top100 selection hits, NGS
I'd be grateful if you could share measured Library fraction for these entries.
Answers are plain numbers.

Item: `SIVFHLTNKMAF` | Library fraction: 0.004

Parameter requested: Library fraction. Apply to each item below.
1. TLELKAIVFH
2. SITFPMQRHIAF
3. AVEFRLQRAIAY
4. ATIDLQLRRLTL
5. SSTVWKLQTICG
6. IGKTYVASS
7. AVRNKYGGNAAS
8. GLLHGNVPTWI

Result:
1. 0.00044
2. 0.00112
3. 0.00093
4. 0.00067
5. 0.00046
6. 0.00089
7. 0.012
8. 0.002

Give one value of Library fraction per listed sequence.
1. WPGSMARDSIS
2. SMHYRFLCKIAF

Result:
1: 0.018; 2: 0.001

Give Library fraction for each of the items listed below.
1. ASFVIGQLLVN
2. SHYFAFQKKLAF
3. RILFARQNLAAF
4. TMMFPRLGKVAY
5. AEIHAWGLRI

Result:
[0.00055, 0.00125, 0.00283, 0.003, 0.00117]

====

Field: Library fraction. Provide a value for each of the sequences that follow.
Target: TLR10 (Homo sapiens)
Sequence (Q9BXR5 20-576): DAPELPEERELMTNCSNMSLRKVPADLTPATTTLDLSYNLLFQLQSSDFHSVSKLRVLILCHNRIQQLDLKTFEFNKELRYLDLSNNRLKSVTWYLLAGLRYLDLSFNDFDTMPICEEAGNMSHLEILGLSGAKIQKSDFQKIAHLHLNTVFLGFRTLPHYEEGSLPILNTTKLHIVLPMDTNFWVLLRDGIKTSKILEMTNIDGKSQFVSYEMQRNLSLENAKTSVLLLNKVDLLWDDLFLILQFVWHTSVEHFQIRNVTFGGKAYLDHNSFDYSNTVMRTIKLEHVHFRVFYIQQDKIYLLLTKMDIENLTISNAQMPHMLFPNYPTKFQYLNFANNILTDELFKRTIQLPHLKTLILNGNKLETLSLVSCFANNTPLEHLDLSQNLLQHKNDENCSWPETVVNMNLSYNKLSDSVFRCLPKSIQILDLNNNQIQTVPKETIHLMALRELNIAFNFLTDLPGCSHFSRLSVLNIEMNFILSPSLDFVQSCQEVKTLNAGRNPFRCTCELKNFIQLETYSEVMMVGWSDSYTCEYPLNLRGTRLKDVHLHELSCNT
Assay: mRNA display affinity selection against TLR10, NGS abundance
Format: binding
Parameters: Chimera protein (extracellular domain, amino acid 20-576;); Fc (chimera); purchased R&D system #6619-TR-050
Settings: TLR10 selection pulldown (+); Top100 selection hits, NGS
One number for each entry.

Measured Library fraction, `SVMNVFGGNAAT` : 0.00029

Provide the reported Library fraction of each entry below, same order.
1. STIVFTFQCIKG
2. ALRFPHLGMMAF
3. MMSRGMRWVL
4. SNVIYARQHIIG
5. SIETTNMVLL
6. AVIVWAKQGIKG

Result:
[0.012, 0.00026, 0.00019, 0.0005, 0.00031, 0.0006]
